- tested_target: Glutathione peroxidase 1 (Homo sapiens) (UniProt P07203)
- Sequence (P07203 whole entry, looked up): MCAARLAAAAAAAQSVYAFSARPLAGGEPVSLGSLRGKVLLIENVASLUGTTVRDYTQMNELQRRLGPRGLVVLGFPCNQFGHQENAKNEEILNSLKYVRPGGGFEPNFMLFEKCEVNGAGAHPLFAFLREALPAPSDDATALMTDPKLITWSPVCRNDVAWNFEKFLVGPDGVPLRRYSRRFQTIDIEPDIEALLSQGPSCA
- assay_comment: Primary qHTS Assay for Inhibitors of Recombinant Selenoprotein Glutathione Peroxidase 1 (GPX1) (AID 1845191); note: nearly all actives have a fitted effect of over 65% in size
- assay_context: recombinant GPX1, GR-coupled NADPH fluorescence, 15 min; series mostly up to 48.8 µM
Records with an inconclusive call do not appear. Active and inactive are the calls of the source. Calls come from the whole dose curve; as a rule, active = well fitted inhibition curve with a large enough effect; inconclusive = small, poorly fitted or top-dose-only effect; inactive = flat fitted curve, though single readings scatter.
quantity: outcome

> print(dat)
                                smiles.code                             tested.target  measured.result
1  CCCCCCCC/C=C\CCCCCCCC(=O)NCc1ccc(O)c(OC)c1  Glutathione peroxidase 1 (Homo sapiens) (UniProt P07203)         inactive
2           COC(=O)[C@@H](N)Cc1ccc(O)c(O)c1  Glutathione peroxidase 1 (Homo sapiens) (UniProt P07203)         inactive
3          CN(C)C(=O)Oc1cccc([N+](C)(C)C)c1  Glutathione peroxidase 1 (Homo sapiens) (UniProt P07203)         inactive

---

- Tested on: HaCat
- assay_comment: Cytotoxic Profiling of Annotated Libraries Using Quantitative High-Throughput Screening (AID 1296008); note: nearly all actives have a fitted effect of over 60% in size
- assay_context: Five cell lines viability, CellTiter-Glo ATP luminescence, 48-72 h
- Method: Cell-based phenotypic screening is a commonly used approach to discover biological pathways, novel drug targets, chemical probes and high-quality hit-to-lead molecules. […] A pintool (Kalypsys) was used to transfer 23 nL of compound solution to the 1536-well assay plates. […] Plates were left at room temperature for 10 min before imaging the ATP-coupled luminescence using a ViewLux microplate imager (PerkinElmer, Waltham, MA).
Records with an inconclusive call do not appear. Active and inactive are the calls of the source. Calls come from the whole dose curve; as a rule, active = well fitted inhibition curve with a large enough effect; inconclusive = small, poorly fitted or top-dose-only effect; inactive = flat fitted curve, though single readings scatter.
Outcome codes: y for active, n for inactive

> print(dat)
                                    compound  assigned.class
 1  OC(CCN1CCCCC1)(c1ccccc1)C1CCCCC1 (stereo not drawn)               n
 2   c1cc(CN2CCCCC2)cc(OCCCNc2nc3ccccc3s2)c1               n
 3  CC(=O)[C@]1(O)Cc2c(O)c3c(c(O)c2[C@@H](O[C@H]2C[C@H](N)[C@H](O)[C@H](C)O2)C1)C(=O)c1ccccc1C3=O               y
 4  CO[C@@]1(NC(=O)CSCC#N)C(=O)N2C(C(=O)O)=C(CSc3nnnn3C)CS[C@@H]21               n
 5           COc1cc(Cc2cnc(N)nc2N)cc(OC)c1OC               n
 6  CCCCCN(CCCCC)C(=O)C(CCC(=O)O)NC(=O)c1ccc(Cl)c(Cl)c1 (stereo not drawn)               n
 7  CN/C(=C\[N+](=O)[O-])NCCSCc1ccc(CN(C)C)o1               n
 8              CN(C)CCCN1c2ccccc2Sc2ccccc21               n
 9         CN(C)C/C=C(/c1ccc(Br)cc1)c1cccnc1               n
10  COc1cc2c(cc1OC)-c1cc(=Nc3c(C)cc(C)cc3C)n(C)c(=O)n1CC2               n
11                CN=C(NC#N)NCCSCc1nc[nH]c1C               n
12      c1cnc(N2CCN(Cc3ccc4c(c3)OCO4)CC2)nc1               n
13  C[N+](C)(C)CCOC(=O)CCC(=O)OCC[N+](C)(C)C               n
14  CC(N=C(NC#N)Nc1ccncc1)C(C)(C)C (stereo not drawn)               n
15   CCC(=O)c1ccc2c(c1)N(CCCN(C)C)c1ccccc1S2               n
16  C[n+]1cc2c3c(ccc2c2ccc4cc5c(cc4c21)OCO5)OCO3               y
17  CC(C)(Oc1ccc(CCNC(=O)c2ccc(Cl)cc2)cc1)C(=O)O               n
18  NC(Cc1ccc(Cl)cc1)C(=O)O (stereo not drawn)               n
19                      CC(C)NNC(=O)c1ccncc1               n
20  CN(C)[C@@H]1C(=O)C(C(N)=O)=C(O)[C@@]2(O)C(=O)C3=C(O)c4c(O)ccc(Cl)c4[C@@H](O)[C@H]3C[C@@H]12               n
21        CCN(CC)CCCN(c1ccccc1)C1Cc2ccccc2C1               n
22  CCN(Cc1ccncc1)C(=O)C(CO)c1ccccc1 (stereo not drawn)               n
23               CN(C)CCOC(=O)COc1ccc(Cl)cc1               n
24                       CCN1CCc2nc(N)oc2CC1               n
25  Cc1nnc(SCC2=C(C(=O)O)N3C(=O)[C@@H](NC(=O)Cn4cnnn4)[C@H]3SC2)s1               n
26                CNCCCN1c2ccccc2CCc2ccccc21               n
27  COCCOC(=O)C1=C(C)NC(C)=C(C(=O)OC(C)C)C1c1cccc([N+](=O)[O-])c1 (stereo not drawn)               n
28    Cc1nc2c([nH]1)c(=O)n(C)c(=O)n2Cc1ccco1               n
